- experimentalTarget: T1, human IL-4Rα HIS FLAG (in house HEK-EBNA derived) (human, biotinylated where used as the labelled partner in the DELFIA assay)
- T1 construct: also called HuIL-4Rα; Human IL4-Rα/FLAG/HIS tag
- T1 chain: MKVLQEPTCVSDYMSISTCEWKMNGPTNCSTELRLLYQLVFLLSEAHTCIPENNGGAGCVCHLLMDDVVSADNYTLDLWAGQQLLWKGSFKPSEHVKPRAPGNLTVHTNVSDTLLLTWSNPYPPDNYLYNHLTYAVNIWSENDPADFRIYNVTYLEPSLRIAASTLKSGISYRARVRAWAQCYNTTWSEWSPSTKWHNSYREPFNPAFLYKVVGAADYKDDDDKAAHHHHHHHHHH
- protocolNotes: SPR (BIAcore 2000), IgG captured on Protein G', receptor as analyte, 1:1 Langmuir
pKd: −log10 of the molar value.

{"binder": "Antibody 9 IgG (antibody, V domains shown) VH: QVQLVQSGAEVKKPGASVKVSCKASGYAFTSYYMHWARQAPGQGLEWMGIINPSGGSTSYAQKFQGRVTMTRDTSTSTVYMELSSLRSEDTAVYYCARGKWWLYNWGKGTLVTVSS VL: QSVLTQPPSVSAAPGQKVTISCSGGSSNIGNSYVSWYQQLPGTAPKLLIYDNNKRPSGIPDRFSGSKSGTSATLAITGLQTGDEADYYCGTWDTSTTMYPLFGTGTKLTVL", "pKd": 9.37}
